assay: Solubility of the compound in phosphate buffered saline at pH 7.4 after 4 hrs by LC-MS/MS analysis
Let's look at some molecules and their measured solubility at 4 h.
assayMetric: solubility at 4 h

[[record]]
molecule = "CC(=O)CC[C@H]1C(=O)N[C@@H](C(C)C)C(=O)N[C@@H](Cc2cccc(O)c2)C(=O)N2CCCC(N2)C(=O)O[C@H](/C(C)=C/C=C/C(=O)N2CCCCO2)C/C=C/C=C/[C@H](O)[C@H](C)[C@H]1O (some centres not stated)"
result = "> 100 µM"

[[record]]
molecule = "CC(=O)CC[C@H]1C(=O)N[C@@H](C(C)C)C(=O)N[C@@H](Cc2cccc(O)c2)C(=O)N2CCCC(N2)C(=O)O[C@H](/C(C)=C/C=C/C(=O)NC(C)C)C/C=C/C=C/[C@H](O)[C@H](C)[C@H]1O (stereo in doubt)"
result = "12 µM"

